# assay.procedure: Toxicity in BALB/c mouse xenografted with human MIA PaCa-2 cells harboring KRAS G12C mutant assessed as change in body weight at 50 mg/kg, po once a day measured for 16 days
# Type: organism-based
# condition.parameters: in vivo, 384 h, time 16 day
recorded.metric: Activity

Before answering, review these 4 worked examples.
compound_structure_string=Cc1nc(N[C@H](C)c2cccc(C(F)F)c2F)c2cc3c(cc2n1)OC[C@H]1CN(C(=O)[C@H]2CCOC2)CCN31 recorded_metric=Activity reading=Non-Toxic
compound_structure_string=Cc1nc(N[C@H](C)c2cccc(C(F)F)c2F)c2cc3c(cc2n1)OC[C@H]1CN(C(=O)NC2CC2)CCN31 recorded_metric=Activity reading=Non-Toxic
compound_structure_string=CC(=O)N1CCN2c3cc4c(N[C@H](C)c5cccc(C(F)F)c5F)nc(C)nc4cc3OC[C@H]2C1 recorded_metric=Activity reading=Non-Toxic
compound_structure_string=Cc1nc(N[C@H](C)c2cccc(C(F)F)c2F)c2cc3c(cc2n1)OC[C@H]1CN(C(=O)[C@@H]2C[C@H]2F)CCN31 recorded_metric=Activity reading=Non-Toxic

Now consider the entry below.
Input line: # Activity lookup, item "COc1cc2nc(C)nc(N[C@H](C)c3cc(N)cc(C(F)(F)F)c3)c2cc1O[C@H]1CCOC1"
Output line: Non-Toxic

Recorded values, source ChEMBL document CHEMBL5236589.
